Record form. Attribute: inhibition. Fill in for each entry.
Molecular target: Rac GTPase-activating protein 1 (Homo sapiens) (UniProt Q9H0H5)
Sequence (Q9H0H5 whole entry, looked up): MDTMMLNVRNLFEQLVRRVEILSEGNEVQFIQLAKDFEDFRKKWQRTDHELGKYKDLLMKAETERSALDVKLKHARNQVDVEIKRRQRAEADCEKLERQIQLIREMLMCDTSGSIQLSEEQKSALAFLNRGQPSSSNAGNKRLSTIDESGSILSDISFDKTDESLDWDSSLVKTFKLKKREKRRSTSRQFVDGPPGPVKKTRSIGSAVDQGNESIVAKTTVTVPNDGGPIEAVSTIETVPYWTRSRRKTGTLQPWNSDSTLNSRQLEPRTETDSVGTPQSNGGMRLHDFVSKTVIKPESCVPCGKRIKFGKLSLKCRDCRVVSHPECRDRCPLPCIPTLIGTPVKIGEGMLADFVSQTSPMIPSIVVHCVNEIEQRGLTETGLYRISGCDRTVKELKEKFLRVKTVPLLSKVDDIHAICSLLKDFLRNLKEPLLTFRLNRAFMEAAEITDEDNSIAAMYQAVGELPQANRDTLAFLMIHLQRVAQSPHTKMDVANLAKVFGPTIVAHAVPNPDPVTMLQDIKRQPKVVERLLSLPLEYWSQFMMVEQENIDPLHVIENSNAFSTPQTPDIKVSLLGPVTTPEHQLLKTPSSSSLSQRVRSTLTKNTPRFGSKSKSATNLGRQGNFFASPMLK
Assay: blockers of MgcRacGAP-driven Rac1 GTP hydrolysis – biochemical, ADP Hunter fluorescence, primary and confirmatory, confirmation (AID 624330);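 also: fluorescence reports GDP produced by GAP-driven GTP hydrolysis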
Settings: MgcRacGAP-stimulated Rac1 GTP hydrolysis, at 30 µM, hits give high values, GST-tagged Rac1 F28L mutant substrate
The whole screen tested about 340,000 compounds, of which about 2,100 (0.62%) were called active. Only a sample is shown. Measured potencies and affinities stand elsewhere.
Numbers only, in %.

Field: example entries. Status: answers known.
molecule="CC1CCCCN1C(=S)Nc1ccc(OC(F)F)cc1 (stereo unspecified)" measuredvalue=2.05
molecule="CC(C)NC(=O)c1cc2n(n1)C(C(F)(F)F)CC(c1ccco1)N2 (stereo unspecified)" measuredvalue=5.2
molecule=O=C(CN1C(=O)c2ccccc2S1(=O)=O)Nc1ccc(S(=O)(=O)N2CCCC2)cc1 measuredvalue=-4.76
molecule=CC(C)Cc1n[nH]c(=O)[nH]1 measuredvalue=4.75
molecule=COc1cc(NC(=O)CCN2CCN(CCO)CC2)cc(OC)c1 measuredvalue=4.08

Look up inhibition for the entries below, preserving their order.
1. CCOCCCNC(=S)Nc1ccc2nc3n(c(=O)c2c1)CCCCC3
2. Cc1cc(C(=O)NCC(=O)OCC(=O)NCCc2ccccc2)ccc1[N+](=O)[O-]
3. O=C(COc1cccc2cccnc12)Nc1cccc(S(=O)(=O)N2CCCC2)c1
4. COc1ccc(Cn2nnnc2C(c2ccccn2)N2CCN(c3cc(Cl)ccc3C)CC2)cc1 (stereo unspecified)
5. Cc1cc(N)cc(C)c1-c1c(Br)cc(N)cc1Br
6. CC1CCCCN1C(=O)NC1CC(=O)N(c2ccc3c(c2)OCCO3)C1 (stereo unspecified)

[-1.06, -1.11, 7.88, 3.5, 10.2, 4.77]

These data points were gathered from PubChem BioAssay AID624330.
